The origin of these recorded values is patent US20240174690A1.

# tested on: KRAS (G12D)::SOS1 (Homo sapiens (Human), UniProt P01116, G12D)
# Sequence (P01116 other isoform, or with tags, fused parts or gaps G12D): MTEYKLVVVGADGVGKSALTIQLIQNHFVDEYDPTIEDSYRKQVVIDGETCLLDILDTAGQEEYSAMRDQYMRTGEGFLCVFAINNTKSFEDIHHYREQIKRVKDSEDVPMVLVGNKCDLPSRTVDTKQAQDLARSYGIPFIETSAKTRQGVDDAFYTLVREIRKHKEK
# experiment summary: KRAS::SOS1 AlphaScreen binding assay, KRAS G12D
readout kind: pIC50
Please keep in mind that pIC50 is minus log10 of the molar concentration; only the number is needed.

{"columns": ["mol smiles", "measured number"],
 "data": [
  ["C[C@@H]1CN(c2cc(O[C@@H](C)[C@@H]3C[C@@H](F)CN3C)nc(-c3noc4c3CCC[C@@]43CCCc4sc(N)c(C#N)c43)n2)CC2(CC2)N1", 8.70],
  ["C[C@H](Oc1cc(-n2ccc(C(=O)O)n2)nc(-c2noc3c2CCC[C@@]32CCCc3sc(N)c(C#N)c32)n1)[C@@H]1CCCN1C", 8.52],
  ["CO[C@H]1CCN(C)[C@@H]1[C@H](C)Oc1cc(-n2ccc(C(=O)N(C)C3COC3)n2)nc(-c2noc3c2CCC[C@@]32CCCc3sc(N)c(C#N)c32)n1", 9.00],
  ["C[C@H](Oc1cc(-n2ccc(-c3cnccn3)n2)nc(-c2noc3c2CCC[C@@]32CCCc3sc(N)c(C#N)c32)n1)[C@@H]1CCCN1C", 8.70],
  ["C[C@H](Oc1cc(N2CCN(C)CC2)nc(-c2noc3c2CCC[C@@]32CCCc3sc(N)c(C#N)c32)n1)[C@@H]1CCCN1C", 9.00]
]}

Please turn your attention to the following entry.
Qu. // lookup pIC50 for `C[C@H](Oc1cc(N2C[C@H](C)N(C)[C@@H](C)C2)nc(-c2onc3c2CCC[C@@]32CCCc3sc(N)c(C#N)c32)n1)[C@@H]1CCCN1C`
Ans. 9.00
